Organism: Rattus norvegicus
method summary: Open TG-GATES - Regimen: Daily Repeat
Assay type: toxicity, organism-based, Sprague-Dawley
Parameters: regimen Daily Repeat, gender Male, age 6 weeks
experimental setup: in vivo, po, 100 mg/kg, […], tissue Blood, route gavage, dose level Low, time 28 day
readout name: Eos
Answer shape: numeric part, then the unit.

Problem: GET /values?readout=Eos&item= "CC(C)(S)[C@@H](N)C(=O)O"
Result: 1.6%

Problem: GET /values?readout=Eos&item= CCN1CCCC1CNC(=O)c1cc(S(N)(=O)=O)ccc1OC (centres undefined) [SULPIRIDE]
Result: 1.2%

Problem: GET /values?readout=Eos&item= "O=C(N[C@H](CO)[C@H](O)c1ccc([N+](=O)[O-])cc1)C(Cl)Cl"
Result: 1%

Problem: GET /values?readout=Eos&item= "O=C(O)c1cccnc1"
Result: 1%
